Origin of measurements: ChEMBL document CHEMBL5390320

I'd appreciate it if you could supply Ki values for the items below.
# measured.target: Cholecystokinin receptor type A (Homo sapiens)
# Sequence (P32238 whole entry): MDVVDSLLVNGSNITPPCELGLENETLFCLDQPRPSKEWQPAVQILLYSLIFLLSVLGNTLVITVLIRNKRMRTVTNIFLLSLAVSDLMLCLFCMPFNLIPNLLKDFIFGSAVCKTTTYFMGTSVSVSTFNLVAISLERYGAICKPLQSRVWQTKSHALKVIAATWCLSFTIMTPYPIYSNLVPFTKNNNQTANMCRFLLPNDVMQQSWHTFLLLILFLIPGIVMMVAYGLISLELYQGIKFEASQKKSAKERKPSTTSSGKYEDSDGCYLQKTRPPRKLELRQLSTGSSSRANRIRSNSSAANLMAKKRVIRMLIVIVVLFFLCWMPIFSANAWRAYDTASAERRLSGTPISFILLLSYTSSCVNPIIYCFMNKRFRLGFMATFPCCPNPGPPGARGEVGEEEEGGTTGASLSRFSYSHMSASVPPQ
Give bare numbers, in µM.

// worked examples, Ki included
| smiles.data | measured.target | recorded.endpoint | val |
| --- | --- | --- | --- |
| COCCNC(=O)c1ccc2c(c1)NC(=O)[C@@H](NC(=O)c1ccccc1CN1CCO[C@@H](C)C1)N=C2c1ccccc1 | Cholecystokinin receptor type A (Homo sapiens) | Ki | 24.3 |
| C[C@H]1CN(Cc2ccccc2C(=O)N[C@H]2N=C(c3ccccc3)c3ccccc3NC2=O)CCO1 | Cholecystokinin receptor type A (Homo sapiens) | Ki | 3.72 |

Input line: Bench note: what Ki did C[C@@H]1CN(Cc2ccccc2C(=O)N[C@H]2N=C(c3ccccc3)c3ccccc3NC2=O)CCO1 show?
Output line: 2.63

----------
# assay: Lipophilicity, log D of the compound in octanol and sodium phosphate buffer at pH 7.4 incubated for 3 hrs under shaking condition by shake flask method based LC-MS/MS analysis
# Type: physicochemical
recorded.endpoint: logD at 3 h
Answers are plain numbers.

Would you mind giving logD at 3 h for every compound in the list below?
1. O=C(N[C@@H]1N=C(c2ccccc2)c2ccccc2NC1=O)c1ccccc1CN1CCOCC1
2. C[C@H]1CN(Cc2ccccc2C(=O)N[C@H]2N=C(c3ccccc3)c3ccncc3NC2=O)CCO1
3. O=C(NC1N=C(c2ccncc2)c2ccccc2NC1=O)c1ccccc1CN1CCOCC1 (racemic)
4. O=C(NC1N=C(c2cc[nH]c(=O)c2)c2ccccc2NC1=O)c1ccccc1CN1CCOCC1 (racemic)
5. C[C@H]1CN(Cc2ccccc2C(=O)NC2N=C(c3ccccc3)c3ccccc3NC2=O)CCO1 (mixture of isomers)
6. C[C@H]1COCCN1Cc1ccccc1C(=O)NC1N=C(c2ccccc2)c2ccccc2NC1=O (mixture of isomers)

Output line:
1: 3.9; 2: 3.3; 3: 2.6; 4: 1.7; 5: 4.2; 6: 4

Would you mind giving logD at 3 h for every compound in the list below?
1. C[C@H]1CN(Cc2ccccc2C(=O)N[C@H]2N=C(c3ccccc3)c3ccccc3NC2=O)CCO1
2. C[C@@H]1CN(Cc2ccccc2C(=O)N[C@H]2N=C(c3ccccc3)c3ccccc3NC2=O)CCO1

Output line:
4.1
4.1

----------
# measured.target: E3 ubiquitin-protein ligase CBL-B (Homo sapiens, UniProt Q13191)
# Sequence (Q13191 whole entry): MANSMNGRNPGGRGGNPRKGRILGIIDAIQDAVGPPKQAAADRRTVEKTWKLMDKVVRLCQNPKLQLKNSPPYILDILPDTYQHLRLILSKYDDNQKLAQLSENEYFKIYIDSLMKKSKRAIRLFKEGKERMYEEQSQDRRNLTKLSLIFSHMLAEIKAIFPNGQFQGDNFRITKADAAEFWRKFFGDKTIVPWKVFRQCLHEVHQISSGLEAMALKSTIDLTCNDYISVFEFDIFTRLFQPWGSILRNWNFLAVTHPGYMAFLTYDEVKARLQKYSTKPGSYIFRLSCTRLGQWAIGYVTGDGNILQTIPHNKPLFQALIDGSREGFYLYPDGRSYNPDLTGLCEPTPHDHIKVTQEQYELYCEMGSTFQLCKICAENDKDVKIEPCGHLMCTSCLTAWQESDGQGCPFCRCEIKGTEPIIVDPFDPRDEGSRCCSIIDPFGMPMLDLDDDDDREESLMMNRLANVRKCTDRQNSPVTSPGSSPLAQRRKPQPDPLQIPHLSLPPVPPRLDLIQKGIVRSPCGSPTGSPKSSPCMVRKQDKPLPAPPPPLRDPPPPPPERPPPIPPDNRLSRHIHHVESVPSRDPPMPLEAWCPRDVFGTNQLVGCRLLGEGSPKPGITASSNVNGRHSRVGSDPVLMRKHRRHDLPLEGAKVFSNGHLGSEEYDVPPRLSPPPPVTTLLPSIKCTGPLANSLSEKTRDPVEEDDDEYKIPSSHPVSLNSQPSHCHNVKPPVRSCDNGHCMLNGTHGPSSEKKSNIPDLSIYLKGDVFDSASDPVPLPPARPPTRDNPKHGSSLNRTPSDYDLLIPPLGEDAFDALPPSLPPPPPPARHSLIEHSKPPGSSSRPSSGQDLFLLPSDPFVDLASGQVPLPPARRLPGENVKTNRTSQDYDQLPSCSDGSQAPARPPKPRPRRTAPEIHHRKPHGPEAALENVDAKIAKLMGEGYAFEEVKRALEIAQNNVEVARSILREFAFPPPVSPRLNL
recorded.endpoint: Kd (nM)
Give bare numbers, in nM.

Input line: Bench note: what Kd did O=C(NC1N=C(c2ccccc2)c2ccccc2NC1=O)c1ccccc1CN1CCOCC1 (racemic) show?
Output line: 400
